Test: soluble on expression in E. coli; label from the status in PepcDB or PDB records
Metric name: soluble on expression in E. coli

MIPLVSIIVPMYNVEPFIEECIDSLLRQTLSDIEIILVNDGTPDRSGEIAEDYAKRDARIRVIHQANGGLSSARNTGIKAARGTYIGFVDGDDYVSSAMFQRLTEEAEQNQLDIVGCGFYKQSSDRRTYVPPQLEANRVLTKPEMTEQLKHAHETRFIWYVWRYLYRRELFERANLLFDEDIRFAEDSPFNLSAFREAERVKMLDEGLYIYRENPNSLTEIPYKPAMDEHLQKQYQAKIAFYNHYGLAGACKEDLNVYICRHQLPMLLANACASPNSPKDIKKKIRQILSYDMVRQAVRHTPFQHEKLLRGERLVLALCKWRLTFLIKLFFEQRGTMKGSAKQALEHHHHHH; not soluble
MAGGARDDLAEKMAGEVALSDDPGATLRKWRTDFDVAQTELADELDVSPSVVSDYESGRRDNPGIGVVRRLVVALLDIDENRGGDHIRQHARVLSAGFDSDVVHDLREYSANVGVERVYDAIDAEELFRGSQDTVAGHTVINSIAAITRLSSDEFYQLYGQSTNRALVFTNVTRGESPLVALRVVSPTPNAVILHGLEDEAVWEHAQDLARIDDFSLAITDIELEDLLGGLRELP; not soluble
